- measurement-description: physchem
- conditions-used: 25 °C, pH 2, aqueous buffer, kinetic from dmso stock
# solubility kinetic at 24 h per record follows

Illustrative cases are given below, each with its answer.
compound	solubility kinetic at 24 h
CC(c1cccc2ccccc12)N1CCC(C(=O)NCc2ccc(Cl)cc2)CC1 (centres unmarked) [Compound 13]	> 24.4 µg/mL
COc1ccc(CNC(=O)[C@H]2CCN([C@H](C)c3cccc4ccccc34)C2)cc1 [Compound 16]	> 24.6 µg/mL
COc1ccc(CNC(=O)[C@@H]2CCN([C@@H](C)c3cccc4ccccc34)C2)cc1 [Compound 15]	> 23.9 µg/mL
COc1ccc(CNC(=O)C2CCN([C@@H](C)c3ccccc3)CC2)cc1 [Compound 2]	> 22.1 µg/mL

Now, please, on to the next compound.
Lookup: Which solubility kinetic at 24 h value is on record for CC[C@@H](C)N1CCC(C(=O)NCc2ccc(OC)cc2)CC1 (racemic) [Compound 14] ?
Found: > 18.4 µg/mL
